Experiment: small-molecule binders of probe aNOTCH3, primary screen, biochemical, small-molecule microarray, 635/667 nm fluorescence (AID 1120);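 further: probe is a biotin-tagged antibody raised against NOTCH3 rather than NOTCH3 protein; score merges spot fluorescence near 667 nm with spot signal to noise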
Settings: higher = more signal
readoutType: composite z-score
Give the figure only, with no unit attached.

Please review the entries below; each comes with its answer.
Q: Name the recorded composite z-score of the item COCCOC(=O)N1C(=O)[C@@]2(c3cc(C#CC4=CCCCC4)ccc31)[C@H](C(=O)N1CCc3cc(OC)c(OC)cc3C1)[C@H]1C(=O)O[C@H](c3ccccc3)[C@H](c3ccccc3)N1[C@@H]2c1ccccc1OCCO in your answer.
Ans: -0.068

Q: Fill in reported composite z-score for this entry: COC(=O)[C@@]1(Cc2ccccc2N=[N+]=[N-])COC(c2ccc(OCCCO)cc2)=N1
Ans: -0.0546

Q: Look up composite z-score of C=CCC(OC(C)=O)[C@@H]1[C@@H](N(Cc2ccc(-c3cccc(C(F)(F)F)c3)o2)C(=O)c2ccc(C)cc2)c2cc(OCCCO)ccc2N1C(=O)c1ccc(-c2ccccc2)cc1 (stereo partly drawn) and report it.
Ans: 0.0026

Q: Tell me measured composite z-score for CCCCCN1CC=CC23O[C@@H]4C=CCOC(=O)[C@@H]4[C@H]2C(=O)N(CCCO)[C@@H]3C1=O (stereo partly drawn) please.
Ans: -0.245

Q: Give me measured composite z-score, please, for this molecule: CN(C)C(=O)[C@@]1(CCC(=O)OC(C)(C)C)N=C(c2ccc(OCCCO)cc2)O[C@H]1c1ccccc1
Ans: 0.519

Q: # return recorded composite z-score for input O=C(CS)NCCCCCCNC(=O)[C@@H]1C[C@@H]2C(=O)N3CCC[C@H]3C(=O)N2[C@@H]1c1ccc(O)cc1
Ans: -0.273

Next:
Q: Using known records, supply composite z-score for C=CCOC(=O)[C@H]1[C@@H]2C(=O)O[C@@H](c3ccccc3)[C@@H](c3ccccc3)N2[C@@H](c2ccc(OCCOC(=O)[C@@H]3C[C@@H]4C(=O)N5CCC[C@H]5C(=O)N4[C@@H]3c3ccc(O)cc3)cc2)[C@]12C(=O)Nc1ccccc12
Ans: 0.299

###

Assay: A549 cell viability effects, profiling panel, calcein-AM fluorescence, 48 h, basal (AID 1162); further: test concentration not given here
Conditions: higher = more signal
readoutType: z-score

Q: Answer with reported z-score of C=C[C@H](COC(C)=O)N(Cc1ccc(OC(C)=O)c(OC)c1)S(=O)(=O)c1ccc(Br)cc1
Ans: 1.18

Q: Specify z-score for C=CCC(OC(C)=O)[C@@H]1[C@@H](N(Cc2ccc(-c3ccccc3)cc2)C(=O)Cc2ccc(OC)cc2)c2cc(OCCCO)ccc2N1C(=O)c1ccc2ccccc2n1 (stereo partly drawn) and stop.
Ans: -0.072

Q: Give reported z-score value for CC(c1ccccc1)C(O)C1C=CC2C(=O)NC(=O)C2N1Nc1ccccn1 (stereo not drawn)
Ans: 0.405

###

Molecular target: Torsin-1A-interacting protein 2 (Homo sapiens)
Experiment: LULL1 binders on small-molecule microarray, primary screen, cell lysate, human LULL1 lysate, 635/667 nm fluorescence (AID 1092);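 further: probe is lysate of COS7 cells overexpressing human LULL1; score merges per-feature 667 nm fluorescence with signal-to-noise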
Conditions: hLULL1 lysate binding, 635 nm fluorescence, higher = more signal
readoutType: composite z-score

Below, each entry is followed by its recorded composite z-score result.
Q: Please report the measured composite z-score for C=C(COC)C(=O)CC[C@@H](OC(=O)c1cccnc1)c1ccc(CO)o1
Ans: 0.991

Q: Return composite z-score for the following compound: Cc1ccc([C@H]2[C@H](C(=O)O)[C@H](Sc3ccccc3)[C@@H](C(C)C)N2S(=O)(=O)c2ccc(C)cc2)cc1
Ans: 3.03

Q: Give recorded composite z-score. O=C1N(CCS(=O)(=O)c2ccccc2)Cc2ccccc2[C@H]2OC(c3ccc(OCCCO)cc3)=N[C@@]12CCS(=O)(=O)c1ccccc1
Ans: 3.01

More entries:
Q: Provide only the value of recorded composite z-score for C=CCC(OC(C)=O)[C@@H]1[C@@H](N(Cc2ccc(-c3ccccc3)cc2)C(=O)Cc2ccc(OC)cc2)c2cc(OCCCO)ccc2N1C(=O)c1ccc2ccccc2n1 (stereo not given in full)
Ans: 1.02

Q: Retrieve composite z-score measured for COCCOC(=O)N1C(=O)[C@@]2(c3cc(C#CCC(C(=O)OC)C(=O)OC)ccc31)[C@H](c1ccc(O)cc1)N1[C@H](c3ccccc3)[C@H](c3ccccc3)OC(=O)[C@H]1[C@@H]2C(N)=O and print it.
Ans: 3.06
